The measured values listed here are drawn from patent US8722929B2.

Biological target: KCNQ 2/3 (Rattus norvegicus, UniProt O88943+O88944)
Construct: endogenous in cells; host or cells: PC-12 cells differentiated with NGF
Experiment: KCNQ 2/3 activator assay by rubidium (Rb+) efflux from NGF-differentiated PC-12 cells
Type: cell-based
Details: Rb+ efflux, PC-12 cells, depolarization buffer 15 mM KCl, 10 min; compounds of formula B
pEC50: −log10 of the molar value.
Measurement Kind: pEC50

Item CCOC(=O)Nc1ccc(NCc2ccc(F)cc2)cc1N [retigabine] has what recorded pEC50?
> 5.70

###

Molecular target: KCNQ 2/3 (Rattus norvegicus, UniProt O88943+O88944)
Construct: endogenous in cells; host or cells: PC-12 cells differentiated with NGF
Experiment: KCNQ 2/3 activator assay by rubidium (Rb+) efflux from NGF-differentiated PC-12 cells
Assay type: cell-based
Settings: Rb+ efflux, PC-12 cells, depolarization buffer 15 mM KCl, 10 min; compounds of formula A; read-out: EC50
EC50 values by entry

Sample CCOC(=O)Nc1ccc(NCc2ccc(F)cc2)nc1N — what was its EC50?
< 15000 nM

Recorded EC50 for CC(C)(C)CC(=O)Nc1ccc(OCc2ccc(F)c(F)c2)cc1N , please?
< 2000 nM

Recorded EC50 of CC(C)(C)CC(=O)Nc1ccc(OCc2ccc(F)cc2)cc1N , please.
< 2000 nM

State the recorded EC50 for this entry: CC(C)(C)CC(=O)Nc1ccc(OCc2ccc(Cl)s2)cc1N
< 2000 nM
